Value source: ChEMBL document CHEMBL5143709

measurement_target: Apelin receptor (Homo sapiens, UniProt P35414)
Sequence (P35414 whole entry): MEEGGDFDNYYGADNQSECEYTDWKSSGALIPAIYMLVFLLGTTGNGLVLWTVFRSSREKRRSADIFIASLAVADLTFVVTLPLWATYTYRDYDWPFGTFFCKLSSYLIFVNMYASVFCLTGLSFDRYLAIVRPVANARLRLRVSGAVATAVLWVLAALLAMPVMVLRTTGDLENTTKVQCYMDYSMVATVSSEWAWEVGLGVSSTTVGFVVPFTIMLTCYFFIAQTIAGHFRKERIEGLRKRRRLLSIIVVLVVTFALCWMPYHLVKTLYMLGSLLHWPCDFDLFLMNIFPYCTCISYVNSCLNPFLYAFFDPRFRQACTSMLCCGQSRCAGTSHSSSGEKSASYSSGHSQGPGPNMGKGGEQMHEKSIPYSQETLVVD
protocol: Agonist activity at human APJ receptor expressed in CHO cells co-expressing Galphaq16 assessed as stimulation of Ca2+ mobilization measured at 1 sec interval for 90 sec by fluorescent Calcium 5-dye based FLIPR-calcium mobilization assay
Type: functional, cell-based
pEC50: −log10 of the molar value.
measure_name: pEC50

O=C(C[C@H](CCc1ccc(F)cc1)NC(=O)c1cc(-c2ccccc2C(F)(F)F)n(C2CCCC2)n1)NC1CCC1 | 6.99
CN(CC[C@@H](CC(=O)NC1CCC1)NC(=O)c1cc(-c2ccccc2C(F)(F)F)n(C2CCCC2)n1)C1CCCCC1 | 7.85
O=C(C[C@@H](CN1CCC(F)(F)C1)NC(=O)c1cc(-c2ccccc2C(F)(F)F)n(C2CCCC2)n1)NC1CCC1 | 5.92
O=C(C[C@@H](CN1CCCC(F)(F)C1)NC(=O)c1cc(-c2ccccc2C(F)(F)F)n(C2CCCC2)n1)NC1CCC1 | 6.04

a: CN(C(=O)[C@H](CC(=O)NC1CCC1)NC(=O)c1cc(-c2ccccc2C(F)(F)F)n(C2CCCC2)n1)C1CCCCC1
b: O=C(C[C@H](CCN1CC2(COC2)C1)NC(=O)c1cc(-c2ccccc2C(F)(F)F)n(C2CCCC2)n1)NC1CCC1
c: O=C(C[C@H](CCN1CCCCC1)NC(=O)c1cc(-c2ccsc2C(F)(F)F)n(C2CCCC2)n1)NC1CCC1
d: O=C(C[C@H](CCN1CCOCC1)NC(=O)c1cc(-c2ccccc2C(F)(F)F)n(C2CCCC2)n1)NC1CCC1
e: CN(C[C@H](CC(=O)NC1CCC1)NC(=O)c1cc(-c2ccccc2C(F)(F)F)n(C2CCCC2)n1)C1CCCCC1
Lookup: Which order do these items take when sorted by rising pEC50? List them. // list labels; follow requested order
Found: e, a, c, b, d
(e: 5.29, a: 6.06, c: 6.27, b: 6.79, d: 7.16)

A: CN(C)CC[C@@H](CC(=O)NC1CCC1)NC(=O)c1cc(-c2ccccc2C(F)(F)F)n(C2CCCC2)n1
B: O=C(C[C@H](CCN1CCCC(F)(F)C1)NC(=O)c1cc(-c2ccccc2C(F)(F)F)n(C2CCCC2)n1)Nc1nnn[nH]1
Lookup: Record comparison, field pEC50: mark the lower of A and B . Your choice should be expressed through its label.
Found: A
(A: 6.08, B: 7.62)

a: C#Cc1ccccc1-c1cc(C(=O)N[C@@H](CCN2CCCCC2)CC(=O)NC2CCC2)nn1C1CCCC1
b: O=C(C[C@H](CCN1CCCC[C@H]1C(F)(F)F)NC(=O)c1cc(-c2ccccc2C(F)(F)F)n(C2CCCC2)n1)NC1CCC1
Lookup: Of the two listed items, a and b , which carries the larger pEC50 figure? Choose, then provide that item's label.
Found: b
